B1: KIAA1161 (parent)
chain: FMPAMQFSIPPWRYDAEVVAIAQK

- Variants of: B1
- Assay comment: protein stability index of a GFP-peptide fusion (GPS, HEK-293T) (PSI 1-6); higher = more stable;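 note: lentivirally expressed fusions sorted by FACS into six bins by GFP to DsRed ratio, PSI derived from sequencing read proportions per bin multiplied by bin number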
- Experimental setup: c terminus: a fixed tail appended
protein stability index reference

[
  {
    "Change": "A4Q",
    "protein stability index": 1.97
  },
  {
    "Change": "E17Y",
    "protein stability index": 2.45
  },
  {
    "Change": "P11T",
    "protein stability index": 1.69
  },
  {
    "Change": "A20F",
    "protein stability index": 2.54
  },
  {
    "Change": "P3L",
    "protein stability index": 2.22
  },
  {
    "Change": "V19Y",
    "protein stability index": 3.33
  },
  {
    "Change": "F1E",
    "protein stability index": 2.81
  },
  {
    "Change": "A4G",
    "protein stability index": 2.34
  },
  {
    "Change": "V19C",
    "protein stability index": 2.39
  },
  {
    "Change": "A22N",
    "protein stability index": 1.6
  },
  {
    "Change": "F1P",
    "protein stability index": 2.33
  },
  {
    "Change": "W12A",
    "protein stability index": 2.31
  },
  {
    "Change": "M2N",
    "protein stability index": 1.61
  },
  {
    "Change": "F1I",
    "protein stability index": 2.52
  },
  {
    "Change": "A20C",
    "protein stability index": 2.22
  },
  {
    "Change": "Q6F",
    "protein stability index": 1.4
  },
  {
    "Change": "F7D",
    "protein stability index": 2.9
  },
  {
    "Change": "A16Q",
    "protein stability index": 1.62
  },
  {
    "Change": "I9S",
    "protein stability index": 2.08
  },
  {
    "Change": "E17N",
    "protein stability index": 1.62
  },
  {
    "Change": "M5A",
    "protein stability index": 2.15
  },
  {
    "Change": "F1G",
    "protein stability index": 2.04
  },
  {
    "Change": "I21Y",
    "protein stability index": 1.64
  },
  {
    "Change": "P3Q",
    "protein stability index": 1.28
  },
  {
    "Change": "A22L",
    "protein stability index": 2.45
  },
  {
    "Change": "Q23Y",
    "protein stability index": 1.3
  },
  {
    "Change": "P3A",
    "protein stability index": 2.35
  },
  {
    "Change": "W12H",
    "protein stability index": 2.53
  },
  {
    "Change": "I9K",
    "protein stability index": 1.84
  },
  {
    "Change": "I9Q",
    "protein stability index": 1.67
  },
  {
    "Change": "M2D",
    "protein stability index": 3.16
  },
  {
    "Change": "I21K",
    "protein stability index": 2.07
  },
  {
    "Change": "F1V",
    "protein stability index": 2.7
  },
  {
    "Change": "M2H",
    "protein stability index": 1.74
  },
  {
    "Change": "V18P",
    "protein stability index": 2.96
  },
  {
    "Change": "K24L",
    "protein stability index": 2.62
  },
  {
    "Change": "V19A",
    "protein stability index": 2.18
  },
  {
    "Change": "P10G",
    "protein stability index": 1.33
  },
  {
    "Change": "A4H",
    "protein stability index": 2.68
  },
  {
    "Change": "K24E",
    "protein stability index": 1.82
  },
  {
    "Change": "F7W",
    "protein stability index": 1.68
  },
  {
    "Change": "V19P",
    "protein stability index": 4.1
  },
  {
    "Change": "E17H",
    "protein stability index": 1.92
  },
  {
    "Change": "S8N",
    "protein stability index": 2.7
  },
  {
    "Change": "P3V",
    "protein stability index": 2.33
  },
  {
    "Change": "W12G",
    "protein stability index": 2.76
  },
  {
    "Change": "S8F",
    "protein stability index": 2.68
  },
  {
    "Change": "F7E",
    "protein stability index": 2.34
  },
  {
    "Change": "A4R",
    "protein stability index": 2.66
  },
  {
    "Change": "W12T",
    "protein stability index": 2.44
  },
  {
    "Change": "A16P",
    "protein stability index": 2.08
  },
  {
    "Change": "S8R",
    "protein stability index": 1.99
  },
  {
    "Change": "V19L",
    "protein stability index": 1.47
  },
  {
    "Change": "I9D",
    "protein stability index": 2.57
  },
  {
    "Change": "F7M",
    "protein stability index": 1.91
  },
  {
    "Change": "P11H",
    "protein stability index": 3.1
  },
  {
    "Change": "V18G",
    "protein stability index": 2.6
  },
  {
    "Change": "P10R",
    "protein stability index": 1.28
  },
  {
    "Change": "F1W",
    "protein stability index": 1.95
  },
  {
    "Change": "R13V",
    "protein stability index": 1.16
  },
  {
    "Change": "S8D",
    "protein stability index": 1.54
  },
  {
    "Change": "P11N",
    "protein stability index": 2.11
  },
  {
    "Change": "Y14A",
    "protein stability index": 2.2
  },
  {
    "Change": "A4M",
    "protein stability index": 1.86
  },
  {
    "Change": "I21S",
    "protein stability index": 2.38
  },
  {
    "Change": "F1R",
    "protein stability index": 3.23
  },
  {
    "Change": "Q23T",
    "protein stability index": 1.92
  },
  {
    "Change": "V18H",
    "protein stability index": 2.93
  },
  {
    "Change": "M2Y",
    "protein stability index": 1.79
  },
  {
    "Change": "M5S",
    "protein stability index": 2.24
  },
  {
    "Change": "R13I",
    "protein stability index": 1.81
  },
  {
    "Change": "V18K",
    "protein stability index": 2.33
  },
  {
    "Change": "P3I",
    "protein stability index": 2.58
  },
  {
    "Change": "F7L",
    "protein stability index": 1.82
  },
  {
    "Change": "A16G",
    "protein stability index": 1.2
  }
]

src = the supplement of paper PMC10567573
